Please find below IC50 measurements for Tyrosine-protein kinase JAK1 (Homo sapiens, UniProt P23458), combined from several publications.

// CN(c1ncnc2[nH]ccc12)C1CCC2(CC1)CCN(C(=O)COc1ccc(C#N)c(F)c1)CC2 : IC50 value = 10 to 100 nM

The reported value for N#CCC1(n2cc(-c3ncnc4[nH]ccc34)cn2)CN([C@@H]2CCN(C(=O)c3ccnc(C(F)(F)F)c3F)C[C@@H]2F)C1 (relative stereo) in terms of IC50 is ≤ 5 nM

Kindly note the recorded IC50 for N#CCC1(n2ccc(-c3ncnc4[nH]ccc34)c2)CN(C2CCN(C(=O)c3cccc(OC(F)(F)F)c3F)CC2)C1 , which is ≤ 5 nM

What the record says about Cc1cnc2nc1NCCCCCNC(=O)c1ccc(cc1C(=O)Nc1ccccc1)-c1cnc(F)c(c1)N2 : IC50 is 1000 to 10000 nM

Quick note, IC50 for C[C@@H](O)c1nc2cnc3ccsc3c2n1[C@H]1CC[C@H](CCC#N)CC1 landed at ≤ 100 nM

The recorded IC50 for CN(C)C1CCN(C(=O)c2ccc(Nc3ncc4ccn(-c5cccc(NS(=O)(=O)C(C)(C)C)c5)c4n3)cc2F)CC1 is 1100 nM

// recorded IC50 for Cc1cc(Nc2ncc(C)c(N3CC(CC#N)(NC(=O)c4cccc(F)c4C)C3)n2)sn1 : < 50 nM

Value of measured IC50 for the entry Cc1c(-c2nc(-c3cnn(C)c3)cc3nccn23)cnn1CCC#N : > 1000 nM

Documented IC50 of CCOC(=O)c1cnc2[nH]ccc2c1N[C@H]1CCC[C@@H](CCC#N)C1 (racemic) : ≤ 10 nM

Entry under test: CN(c1ncnc2[nH]ccc12)N1CCCC(C)(C(=O)NCC#N)C1 (centres unmarked) . Its IC50 was > 1000 nM

In plain terms, CCS(=O)(=O)NC1(CC#N)CN(c2nc(Nc3cc(C)ns3)ncc2C)C1 has a documented IC50 of < 50 nM

get_value(item= NC(=O)C1CCN(Cc2ccc(-c3cccc4nc(NC(=O)C5CC5)nn34)cc2)CC1 , readout=IC50) returns 435 nM

Value of IC50 reported for the molecule N#CCC(=O)N1CC2CCN(Nc3ncnc4[nH]ccc34)CC2C1 (centres unmarked) is 100 to 1000 nM

The reported value for N#CCC1(n2cc(-c3ncnc4[nH]ccc34)cn2)CN(C2CCN(Cc3ccc4c(c3)OCCO4)CC2)C1 in terms of IC50 is ≤ 5 nM

IC50 reading for Cc1cnc2cc(Nc3ncc(Cl)c(NC4CCN(c5ccc(C#N)cn5)CC4)n3)cnn12 : < 0.3 nM

IC50 reading for O=C(NCCC(F)(F)F)c1noc2c1CN(c1ncnc3[nH]ccc13)CC2 : < 100 nM

Consider COc1cc(F)cc(F)c1COc1ccc2cc1COCC[C@H](C)CNC(=O)c1ccc(c(N)c1)-c1ccnc(n1)N2 . Its measured IC50 is 1000 to 10000 nM

Consider CN(c1ncnc2[nH]ccc12)N1CCCN(C(=O)CC#N)CC1 . Its measured IC50 is 100 to 1000 nM

Kindly note the recorded IC50 for Cc1cnc2nc1Nc1cc(F)cc(c1)CCNC(=O)c1ccc(cc1S(C)(=O)=O)-c1cnc(F)c(c1)N2 , which is < 10 nM

// recorded IC50 for O=C(Nc1cccc2c(-c3ccnc(NC(=O)C4CC4)c3)c[nH]c12)c1cncs1 : < 100 nM

For record Cc1cnc(Nc2ccccc2)nc1N1CC(CC#N)(N2CCN(C)CC2)C1 the listed IC50 is < 70 nM

CN(CC(F)(F)F)C(=O)C1CCCN(N(C)c2ncnc3[nH]ccc23)C1 (centres unmarked) has a reported IC50 of 10 to 100 nM

molecule CSCNC(=O)C1CCCN(N(C)c2ncnc3[nH]ccc23)C1 (centres unmarked) , IC50 observed: < 10 nM

IC50 for Cn1cc(Nc2ncc(Cl)c(NC3CC4CN(S(C)(=O)=O)CC4C3)n2)cn1 (centres unmarked) is 1 nM

For record O=C(NCCC(F)(F)F)c1onc2c1CN(c1ncnc3[nH]ccc13)CC21CC1 the listed IC50 is 100 to 500 nM

In plain terms, N#CCC1(n2cc(-c3ncnc4[nH]ccc34)cn2)CN(C2CCN(C(=O)Nc3ncc(F)cc3F)CC2)C1 has a documented IC50 of 5 to 20 nM

Recorded IC50 (molecule CCS(=O)(=O)N1CC(CC#N)(n2cc(-c3nc(NC4CC4)nc4ccsc34)cn2)C1 ): > 1000 nM

Entry Nc1cc2ccc1-c1ccnc(n1)Nc1ccc(OCC3CCCC3)c(c1)COCCCCNC2=O , IC50 reported as 1000 to 10000 nM

Value of IC50 reported for the molecule N#CCC1(n2cc(-c3c(C#N)cnc4[nH]ccc34)cn2)CN(C2CCN(C(=O)c3cc(C#N)cc(C#N)c3)CC2)C1 is 5 to 20 nM

Cc1cnc(-c2cnc3[nH]ccc3c2N[C@H]2C[C@@H](NS(=O)(=O)c3cccc(C#N)c3)C2)s1 has a reported IC50 of ≤ 10 nM

Kindly note the recorded IC50 for N#CCC1(n2cc(-c3nc(-c4ccc(C(F)(F)F)cc4)cc4nccn34)cn2)CN(S(=O)(=O)C(F)(F)F)C1 , which is 10 to 100 nM

// sample CC(C)(O)Cc1cn2cc(Nc3ncc(Cl)c(NC4CCN(c5ccc(C#N)cn5)CC4)n3)ccc2n1 , its IC50 was 1 nM

###

This section presents IC50 values reported for Tyrosine-protein kinase JAK1 (Homo sapiens, UniProt P23458) in the literature.

So the reported IC50 for O=C1NCCCCOCc2cc(cc(N3CCOCC3)c2)Nc2ncc(Cl)c(n2)-c2ccc1cc2F , on Tyrosine-protein kinase JAK1 (Homo sapiens, UniProt P23458), turned out to be 1000 to 10000 nM

Test item O=C(NCCS(=O)(=O)N1CCCCC1)c1noc2c1CN(c1ncnc3[nH]ccc13)CC2 ; Tyrosine-protein kinase JAK1 (Homo sapiens, UniProt P23458); reported IC50 was 500 to 2000 nM

Noted IC50 for CCOC(=O)CCn1cc(Nc2ncc3ccn(Cc4ccsc4)c3n2)cn1 , tested on Tyrosine-protein kinase JAK1 (Homo sapiens, UniProt P23458): 100 to 1000 nM

Value sought: IC50, system Tyrosine-protein kinase JAK1 (Homo sapiens, UniProt P23458), item CCS(=O)(=O)N1CC(CC#N)(n2cc(-c3nc(Nc4cnn(C(C)=O)c4)nc4ccsc34)cn2)C1 . Result: < 50 nM

The value of IC50 recorded for N#CCC1(n2cc(-c3ncnc4[nH]ccc34)cn2)CN(C2CCN(Cc3c(F)ccc(Cl)c3F)CC2)C1 when tested on Tyrosine-protein kinase JAK1 (Homo sapiens, UniProt P23458) reads ≤ 5 nM

For the compound COC(=O)c1cnc2[nH]ccc2c1N[C@H]1CCC[C@H](CCC#N)C1 (racemic) , the measured IC50 on Tyrosine-protein kinase JAK1 (Homo sapiens, UniProt P23458) was ≤ 10 nM

Given the compound CN(c1ncnc2[nH]ccc12)C1CCC2(CC1)CCN(C(=O)NCC(F)(F)F)CC2 and test system Tyrosine-protein kinase JAK1 (Homo sapiens, UniProt P23458), the measured IC50 is 10 to 100 nM

Per the reported Tyrosine-protein kinase JAK1 (Homo sapiens, UniProt P23458) data, C[C@@H](O)Cn1cc(Nc2nc(-c3cnn(C4(CC#N)CN(S(C)(=O)=O)C4)c3)c3sccc3n2)cn1 has IC50 of < 50 nM

Let me check: CCOC(=O)Cn1cc(Nc2ncc3ccn(CC4CCCCC4C)c3n2)cn1 (stereo not shown) , system Tyrosine-protein kinase JAK1 (Homo sapiens, UniProt P23458), measured IC50 is < 100 nM

Let me check: CC(C)(O)c1cnc(Nc2cc3ncccc3c(N[C@@H]3C[C@H]4CC[C@@H](C3)N4CCC#N)n2)s1 , system Tyrosine-protein kinase JAK1 (Homo sapiens, UniProt P23458), measured IC50 is 48.6 nM

Hey, Tyrosine-protein kinase JAK1 (Homo sapiens, UniProt P23458) data for Cc1cnc2nc1Nc1cc(ccc1F)CCCNC(=O)c1ncc(cc1F)-c1cnc(F)c(c1)N2 : IC50 came out at 11 to 100 nM

Record for CN(c1ncnc2[nH]ccc12)C1CCC2(CC1)CCN(C(=O)c1cccc(C(F)(F)F)c1)CC2 under target or system Tyrosine-protein kinase JAK1 (Homo sapiens, UniProt P23458): IC50 reported as 100 to 1000 nM

Response field IC50 (Tyrosine-protein kinase JAK1 (Homo sapiens, UniProt P23458)) for item N#CCC1(n2cc(-c3nc(C4CC4)cc4nccn34)cn2)CN(CC(F)(F)F)C1 : > 1000 nM

Recorded IC50 for Cc1cc(Nc2nc(NC3CCN(S(=O)(=O)N4CC(C#N)C4)CC3)nc3ccccc23)n[nH]1 on Tyrosine-protein kinase JAK1 (Homo sapiens, UniProt P23458) was 7.5 nM

Tyrosine-protein kinase JAK1 (Homo sapiens, UniProt P23458) data for CCCS(=O)(=O)N[C@H]1C[C@H](n2cnc3cnc4[nH]ccc4c32)C1 ; its IC50: 190 nM

Item Cn1cc(-c2cc3ncc(Cl)n3c(-c3cnn(C4(CC#N)CN(S(=O)(=O)C(F)(F)F)C4)c3)n2)cn1 ; assay system Tyrosine-protein kinase JAK1 (Homo sapiens, UniProt P23458); IC50 reported as 10 to 100 nM
